- Test system: SLK
- EXPERIMENTAL_PARAMETERS: concentration: 1 μM,replicates: in singlicate; n = 1;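 also: KINOMEscan kinase panel screen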
In this section, each of the compounds is paired with its reported %Inh.
Answer with the number, then the unit.

Some compounds with known %Inh results, for comparison:
>>> assay_value("Cc1ccc(CC(=O)N2CCc3cc(-c4cn(C)c5ncnc(N)c45)ccc32)cc1")
"59%"
>>> assay_value("CN(c1cccc(CNc2nc(Nc3ccc4c(c3)CC(=O)N4)ncc2C(F)(F)F)c1)S(C)(=O)=O")
"33%"
>>> assay_value("CS(=O)(=O)Nc1ccc(-c2ccnc3[nH]ccc23)cc1")
"49%"
>>> assay_value("CN(c1ccccc1CNc1nc(Nc2ccc3c(c2)CC(=O)N3)ncc1C(F)(F)F)S(C)(=O)=O")
"94.8%"
>>> assay_value("Cn1ccc2ncnc(Oc3ccc(NC(=O)Nc4cnn(C(C)(C)C)c4)c(Cl)c3)c21")
"79%"

q: Entry Cl.c1ccc(Oc2ccc(Nc3ccnc4cc(-c5ccc(CN6CCNCC6)o5)ccc34)cc2)nc1 , system SLK: what %Inh was measured?
a: 19%

q: Please provide the recorded %Inh for C[C@@H]1CNc2c(sc3ccc4nc(-c5ccc(O)cc5)ccc4c23)C(=O)N1 , tested on SLK.
a: 0%

q: Record lookup: for SLK, what %Inh belongs to c1ccc(Oc2ccc(Nc3ccnc4ccc(-c5ccccn5)cc34)cc2)cc1 ?
a: 10%

q: Form field: %Inh recorded for Nc1nccc(-c2ccc3c(N)n[nH]c3c2)n1 with SLK (enter value)
a: 25%

q: Hello, I am looking for reported %Inh with SLK for O=C1NCCc2[nH]c(-c3ccncc3)cc21 . Could you help?
a: 22%

q: Please state recorded %Inh (tested on SLK) of CC(=O)Nc1ccc(-c2cc3ncnc(SCC(=O)O)c3s2)cc1
a: 18%

* * *

- Test system: CDK11
- Construct: gene CDK19
- EXPERIMENTAL_PARAMETERS: concentration: 1 μM,replicates: in singlicate; n = 1
RECORDED_METRIC: %Inh (%)
The reply should contain only the number, in %.

Please review the following examples before continuing.
>>> assay_value("CC(C(=O)NC1CCN(c2ccnc(Nc3ccc(F)cc3)n2)C1)c1ccc(Cl)cc1 (centres unmarked)")
6
>>> assay_value("O=C(Nc1cccc(Oc2ccc3nccn3n2)c1)Nc1cccc(C(F)(F)F)c1")
98.7
>>> assay_value("N#Cc1cccc(C(=O)NC2CCN(c3ccnc(Nc4ccc(F)cc4)n3)C2)c1 (centres unmarked)")
4
>>> assay_value("Cl.Cl.NC[C@H](CC1CCCCC1)NC(=O)c1ccc(-c2ccnc3[nH]ccc23)s1")
4
>>> assay_value("CCN1CCN(CCCC(=O)Nc2n[nH]c3nc(-c4ccc(O)cc4)c(Br)cc23)CC1")
0

q: For C[C@@H](Oc1cc(-n2cnc3ccc(-c4ccncc4)cc32)sc1C(N)=O)c1ccccc1Cl , what is its reported %Inh?
a: 73

q: Give its %Inh value. Item: O=C1NCCc2[nH]c(-c3ccncc3)cc21
a: 22

q: What measured %Inh goes with CCNCC(Cc1ccccc1)NC(=O)c1cc(Br)c(-c2ccnc3[nH]ccc23)s1.Cl.Cl (centres unmarked) ?
a: 39

* * *

- System: TRPM6
- EXPERIMENTAL_PARAMETERS: concentration: 1 μM,replicates: in singlicate; n = 1
This section presents compounds with their documented %Inh values.
# output: bare number, implied unit %

q: Entry CS(=O)c1ccc(-c2coc3ccc(-c4n[nH]c(=O)o4)cc23)cc1 (stereo not shown) has what %Inh?
a: 0

q: %Inh for O=C(Nc1cccc(Oc2ccc3nccn3n2)c1)Nc1cccc(C(F)(F)F)c1 ?
a: 0

q: Give the measured %Inh of CS(=O)(=O)c1cccc(CNc2nc(Nc3ccc4c(c3)[C@@H]3C[C@@H]4CNC3=O)ncc2C(F)(F)F)c1 .
a: 0

Just for reference, paper PMC5540273 is where these values come from.
